Overview of recorded growth for various compounds
Tested on: HOP-92 NSCLC
TEST DETAILS: NCI-60 one-dose screen, 48 h (100 = growth as untreated, 0 = no growth, -100 = all killed)
EXPERIMENTAL CONTEXT: 10 µM unless noted
Procedure: Growth inhibition of the HOP-92 human Non-Small Cell Lung tumor cell line is measured as a screen for anti-cancer activity. Cells are grown in 96 well plates and exposed to the test compound for 48 hours. Compounds are tested at a single concentration, which is 10^-5 M for most compounds. The reported endpoint is percent growth (GI% or GIPRCNT), where numbers from 0 - 100% represent growth inhibition, and numbers from -100% - 0 represent cell death. […]
The panel holds about 83,000 compounds, 20% with a hit somewhere; the sample as a whole holds those more often.
Lab book: enter the figure in %, no units written.

# COMPOUND, MEASURED PARAMETER, READOUT UNITS, NUMERIC VALUE
rows = [
    ("c1ccc2[nH]c(-c3ccc(-c4nccc5c4[nH]c4ccccc45)cc3)nc2c1", "growth", "%", 92.4),
    ("CCN1C(=O)N(CC)C2C1NN=c1s/c(=C\\c3ccc(F)cc3)c(=O)n12 (stereo unspecified)", "growth", "%", 43.6),
    ("Cc1cc2c(c(C)n1)CN(C(=O)Nc1nc(-c3cncs3)ccc1N)C2", "growth", "%", 90.1),
    ("Cc1c2ccncc2c(C)c2c1c1ccccc1n2CCCCCC(=O)O", "growth", "%", 80.6),
    ("N=C(N)c1ccc(-c2ccc(-c3ccccc3)s2)nc1", "growth", "%", 70.2),
]

Query :: Recall the recorded growth for Nc1ncnc2c1N=C(c1ccc([N+](=O)[O-])cc1)CC(c1ccc3c(c1)OCO3)N2 (stereo unspecified) with HOP-92 NSCLC and state it.
Result :: 34
